Exercise: for every item that follows, state its recorded DC50.
- TARGET OF ASSAY: IRAK4 (Homo sapiens, UniProt Q9NWZ3)
- Construct: Degradation of IRAK4 in OCI-LY10 was quantitatively measured using Meso Scale Discovery technology; endogenous in cells; host or cells: OCI-LY10
- Sequence (Q9NWZ3 whole entry): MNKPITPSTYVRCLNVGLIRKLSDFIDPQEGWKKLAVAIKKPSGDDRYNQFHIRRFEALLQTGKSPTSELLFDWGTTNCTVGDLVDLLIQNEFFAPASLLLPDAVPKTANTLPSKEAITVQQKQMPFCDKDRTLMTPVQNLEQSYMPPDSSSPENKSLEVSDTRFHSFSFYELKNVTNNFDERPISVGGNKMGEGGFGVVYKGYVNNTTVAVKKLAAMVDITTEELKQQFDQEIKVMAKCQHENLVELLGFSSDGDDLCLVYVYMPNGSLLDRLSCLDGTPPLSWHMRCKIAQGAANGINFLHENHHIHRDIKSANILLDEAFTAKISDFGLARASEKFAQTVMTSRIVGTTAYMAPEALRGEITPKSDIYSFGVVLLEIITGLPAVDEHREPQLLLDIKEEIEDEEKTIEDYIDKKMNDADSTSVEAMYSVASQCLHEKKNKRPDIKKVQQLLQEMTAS
- ASSAY SUMMARY: IRAK4 MSD Degradation in OCI-LY10
- Type: cell-based
- CONDITIONS USED: OCI-LY10 cells, 4 hrs incubation, MSD; read-out: IRAK4 degradation in OCI-LY10 at 4 hrs: DC50

Data point: Cn1c(=O)n(C2CCC(=O)NC2=O)c2cccc(C3CCN(C[C@H]4CC[C@H](n5cc6cc(NC(=O)c7cccc(C#N)n7)ncc6n5)CC4)CC3F)c21 (some centres unmarked) ; DC50 = > 200 nM

Data point: COc1ccn2ncc(C(=O)Nc3cn([C@H]4CC[C@H](CN5CCN(CC#Cc6cccc7c6n(C)c(=O)n7C6CCC(=O)NC6=O)CC5)CC4)nc3C(F)F)c2n1 (some centres unmarked) ; DC50 = 10 to 100 nM

Data point: Cn1c(=O)n(C2CCC(=O)NC2=O)c2cccc(OC3CC4(CCN(Cc5ccc(-n6cc(NC(=O)c7cnn8ccc(N9C[C@H]%10C[C@@H]9CO%10)nc78)c(C(F)F)n6)cc5)CC4)C3)c21 (some centres unmarked) ; DC50 = > 200 nM

Data point: COc1cc2nn([C@H]3CC[C@H](CN4CCC5(CC4)CCN(c4cccc6c4n(C)c(=O)n6C4CCC(=O)NC4=O)CC5)CC3)cc2cc1NC(=O)c1cncc(C(F)(F)F)c1 (some centres unmarked) ; DC50 = > 200 nM

Data point: Cn1c(=O)n(C2CCC(=O)NC2=O)c2cccc(C3CC(OC4CCN(C[C@H]5CC[C@H](n6cc(NC(=O)c7cnn8ccc(N9C[C@H]%10C[C@@H]9CO%10)nc78)c(C(F)F)n6)CC5)CC4)C3)c21 (some centres unmarked) ; DC50 = < 10 nM

Data point: Cn1c(=O)n(C2CCC(=O)NC2=O)c2cccc(C#CCOC3CCN(C[C@H]4CC[C@H](c5ccc(C(F)F)c(NC(=O)c6cnn7ccc(N8C[C@H]9C[C@@H]8CO9)nc67)c5)CC4)CC3)c21 (some centres unmarked) ; DC50 = > 200 nM

Data point: C[C@@H]1CN(c2ccn3ncc(C(=O)Nc4cn([C@H]5CC[C@H](CN(C)C6CCN(c7cccc8c7n(C)c(=O)n8C7CCC(=O)NC7=O)CC6)CC5)nc4C(F)F)c3n2)C[C@H](C)O1 (some centres unmarked) ; DC50 = 10 to 100 nM

Data point: COc1cc2nn([C@H]3CC[C@H](CN4CCC5(CC4)CCN(c4cccc6c(C7CCC(=O)NC7=O)cncc46)CC5)CC3)cc2cc1NC(=O)c1cncc(C#N)c1 (some centres unmarked) ; DC50 = > 200 nM

Data point: Cc1ccc(-c2nn([C@H]3CC[C@H](CN4CCC(OCC#Cc5cccc6c5n(C)c(=O)n6C5CCC(=O)NC5=O)CC4)CC3)cc2NC(=O)c2cnn3cccnc23)cc1 (some centres unmarked) ; DC50 = > 200 nM

Data point: Cn1c(=O)n(C2CCC(=O)NC2=O)c2cccc(N3CCC4(CC3)CN(Cc3ccc(-n5cc(NC(=O)c6cnn7cccnc67)c(C(F)F)n5)cc3)C4)c21 (centres unmarked) ; DC50 = < 10 nM

Data point: Cn1c(=O)n(C2CCC(=O)NC2=O)c2cccc(C#CCOC3CCN(C[C@H]4C[C@H](n5cc(NC(=O)c6cnn7ccc(N8C[C@H]9C[C@@H]8CO9)nc67)c(C(F)F)n5)C4)CC3)c21 (some centres unmarked) ; DC50 = < 10 nM
